Just for reference, patent US20250332265A1 is where these values come from.

# Tgt: PSMA (Homo sapiens, UniProt Q04609)
# Construct: expressed in transfected cells; host or cells: PC3pip cells (PC3 retrovirally transduced with PSMA), from Dr. Michel Sadelain, MSKCC
# Sequence (Q04609 whole entry): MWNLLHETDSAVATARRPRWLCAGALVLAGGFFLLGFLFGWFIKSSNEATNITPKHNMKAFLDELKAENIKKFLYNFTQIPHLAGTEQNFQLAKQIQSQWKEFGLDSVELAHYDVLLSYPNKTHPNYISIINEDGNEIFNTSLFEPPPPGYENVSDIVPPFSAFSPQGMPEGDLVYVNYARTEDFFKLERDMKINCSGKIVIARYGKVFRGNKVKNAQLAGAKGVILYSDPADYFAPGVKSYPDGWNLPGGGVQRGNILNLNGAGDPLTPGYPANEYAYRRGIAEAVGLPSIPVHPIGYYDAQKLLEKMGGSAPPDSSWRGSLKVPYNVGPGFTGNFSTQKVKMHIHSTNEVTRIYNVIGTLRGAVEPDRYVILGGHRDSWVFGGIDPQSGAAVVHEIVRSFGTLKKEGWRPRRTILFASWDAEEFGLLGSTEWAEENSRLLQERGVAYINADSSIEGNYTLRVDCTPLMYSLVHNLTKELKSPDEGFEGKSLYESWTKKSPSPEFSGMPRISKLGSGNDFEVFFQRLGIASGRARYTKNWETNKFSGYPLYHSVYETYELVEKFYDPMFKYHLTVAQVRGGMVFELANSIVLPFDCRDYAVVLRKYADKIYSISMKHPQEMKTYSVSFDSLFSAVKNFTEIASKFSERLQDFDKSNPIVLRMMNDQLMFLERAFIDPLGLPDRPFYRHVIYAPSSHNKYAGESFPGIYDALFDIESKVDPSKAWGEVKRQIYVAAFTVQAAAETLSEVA
# Assay Method Text: Competition binding studies, Example 2
# Assay Context: PC3pip cells, 12 nM 3H-ZJ24, 1 h, 37° C.; read-out: IC50, concentration required to inhibit 50% of the binding
Reported Property: IC50 (nM)

>>> val("NCCCC[C@H](NC(=O)N[C@@H](CCC(=O)O)C(=O)O)C(=O)O [ZJ24, reference compound]")
10.7

----------
# Tgt: PSMA (Homo sapiens, UniProt Q04609)
# Construct: expressed in transfected cells; host or cells: PC3pip cells (PC3 retrovirally transduced with PSMA), from Dr. Michel Sadelain, MSKCC
# Assay Method Text: Competitive binding assay (3H-ZJ24 displacement), Example 1
# Assay Context: PC3pip cells, 10 nM 3H-ZJ24; read-out: IC50, concentration required to inhibit 50% of binding
pIC50: −log10 of the molar value.
Reported Property: pIC50

>>> val("NCCCC[C@H](NC(=O)N[C@@H](CCC(=O)O)C(=O)O)C(=O)O [ZJ24, reference compound]")
7.93
